The origin of these recorded values is patent US11814367B2.

- target: hGYS1 enzyme (recombinant hGYS1/GN1 protein) (Homo sapiens (Human), UniProt P13807)
- Sequence (P13807 whole entry): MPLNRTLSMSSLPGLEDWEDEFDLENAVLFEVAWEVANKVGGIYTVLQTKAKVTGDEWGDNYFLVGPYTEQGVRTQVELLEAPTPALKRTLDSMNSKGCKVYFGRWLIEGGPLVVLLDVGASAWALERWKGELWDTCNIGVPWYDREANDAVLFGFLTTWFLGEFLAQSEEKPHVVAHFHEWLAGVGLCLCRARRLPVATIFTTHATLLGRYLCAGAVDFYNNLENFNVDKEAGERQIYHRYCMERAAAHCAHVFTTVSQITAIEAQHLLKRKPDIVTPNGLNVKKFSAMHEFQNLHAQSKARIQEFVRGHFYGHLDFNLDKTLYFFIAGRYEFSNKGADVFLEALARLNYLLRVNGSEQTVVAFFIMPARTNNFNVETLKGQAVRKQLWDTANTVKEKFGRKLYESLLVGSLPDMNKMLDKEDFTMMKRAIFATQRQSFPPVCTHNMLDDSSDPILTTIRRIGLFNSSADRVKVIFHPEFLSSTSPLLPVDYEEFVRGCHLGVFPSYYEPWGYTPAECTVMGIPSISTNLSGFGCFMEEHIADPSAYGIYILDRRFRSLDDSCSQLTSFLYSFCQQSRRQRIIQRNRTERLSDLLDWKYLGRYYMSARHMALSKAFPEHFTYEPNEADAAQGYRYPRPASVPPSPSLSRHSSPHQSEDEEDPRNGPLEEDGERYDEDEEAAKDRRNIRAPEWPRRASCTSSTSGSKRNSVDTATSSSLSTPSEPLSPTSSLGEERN
- Sequence (P46976 whole entry partner): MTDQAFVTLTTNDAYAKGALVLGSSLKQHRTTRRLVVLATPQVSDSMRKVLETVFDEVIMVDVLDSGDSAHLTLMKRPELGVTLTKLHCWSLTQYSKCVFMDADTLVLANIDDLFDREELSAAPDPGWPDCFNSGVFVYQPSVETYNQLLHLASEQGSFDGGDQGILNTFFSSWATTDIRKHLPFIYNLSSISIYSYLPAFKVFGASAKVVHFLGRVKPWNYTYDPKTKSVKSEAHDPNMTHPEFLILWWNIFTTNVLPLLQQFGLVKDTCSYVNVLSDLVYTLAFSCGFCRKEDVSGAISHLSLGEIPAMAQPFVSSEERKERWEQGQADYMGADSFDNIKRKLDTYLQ
- run description: GYS1 coupled enzyme assay (PK/LDH)
- experimental parameters: hGYS1/GN1 50 nM, UDP-Glucose 0.8 mM, G6P 1 mM; geometric mean of at least 2 runs
pIC50: −log10 of the molar value.
Lab note: anything with pIC50 at or over 7 counts as T; the rest go in F.

-- ask Test whether the compound "CC(C)(C)c1ccc([C@@H](NC(=O)[C@@H]2C[C@@H](F)CN2C(=O)Cc2cnn[nH]2)c2ccccc2)cc1F" records pIC50 of 7 or higher.
-- reply F

-- ask Does pIC50 meet or surpass 7 for "CC(C)c1ccc([C@@H](NC(=O)[C@@H]2C[C@@H](F)CN2C(=O)Cn2cnnc2)c2ccccc2)nc1F" ?
-- reply T

-- ask Form field: pIC50 at least 7? Entry: "COc1ccc(F)cc1CC(=O)N1C[C@H](F)C[C@H]1C(=O)N[C@@H](c1ccccc1)c1ccc(C(C)C)cc1"
-- reply T

-- ask Quick check: does "CC1(c2ccc([C@@H](NC(=O)[C@@H]3C[C@@H](F)CN3C(=O)CN3Cc4ccccc4C3=O)c3ccccc3)cc2F)CC1" have pIC50 greater than or equal to 7?
-- reply F

-- ask hey, is pIC50 for this one >= 7? CC(=O)N1CCC2(CC1)CC2C(=O)N1C[C@H](F)C[C@H]1C(=O)N[C@@H](c1ccccc1)c1ccc(C(C)C)cc1 (stereo partly shown)
-- reply F

-- ask Would you say "CC(C)c1ccc([C@@H](NC(=O)[C@@H]2C[C@@H](F)CN2C(=O)Cc2cccnc2)c2ccccc2)cc1F" shows pIC50 at minimum 7?
-- reply T

###

- target: hGYS1 enzyme (recombinant hGYS1/GN1 protein) (Homo sapiens (Human))
- run description: GYS1 coupled enzyme assay (PK/LDH)
- experimental parameters: hGYS1/GN1 50 nM, UDP-Glucose 0.8 mM, G6P 1 mM; geometric mean of at least 2 runs
measurement name: pIC50
Reminder that pIC50 means the negative base-10 logarithm of the concentration expressed in mol/L.

molecule=CN(C)C(=O)NCC(=O)N1C[C@H](F)C[C@H]1C(=O)N[C@@H](c1ccccc1)c1ccc(C2CC(F)(F)C2)cn1 target="hGYS1 enzyme (recombinant hGYS1/GN1 protein) (Homo sapiens (Human))" measurement_name=pIC50 measured_number=7.19
molecule=O=C(N[C@@H](c1ccccc1)c1ccc(C2CC2)c(F)n1)[C@@H]1C[C@@H](F)CN1C(=O)Cn1cnnc1 target="hGYS1 enzyme (recombinant hGYS1/GN1 protein) (Homo sapiens (Human))" measurement_name=pIC50 measured_number=7.06
molecule=O=C(N[C@@H](c1ccccc1)c1ccc(C2CC2)c(F)c1)[C@@H]1C[C@@H](F)CN1C(=O)Cc1n[nH]c(=O)[nH]1 target="hGYS1 enzyme (recombinant hGYS1/GN1 protein) (Homo sapiens (Human))" measurement_name=pIC50 measured_number=7.03
molecule="Cn1c(=O)[nH]c2c(C(NC(=O)[C@@H]3C[C@@H](F)CN3C(=O)Cc3cnn[nH]3)c3ccc(C4CC4)c(F)c3)cccc21 (single isomer, unassigned)" target="hGYS1 enzyme (recombinant hGYS1/GN1 protein) (Homo sapiens (Human))" measurement_name=pIC50 measured_number=5.84
molecule=O=C(N[C@@H](c1ccccc1)c1ccc(C2CC(F)(F)C2)c(F)n1)[C@@H]1C[C@@H](F)CN1C(=O)Cn1ccc(=O)[nH]c1=O target="hGYS1 enzyme (recombinant hGYS1/GN1 protein) (Homo sapiens (Human))" measurement_name=pIC50 measured_number=8.15

-- ask For the molecule shown here, "CC(C)c1ccc([C@@H](NC(=O)[C@@H]2C[C@@H](F)CN2C(=O)Cc2cnn[nH]2)c2cccc(-c3ccn[nH]3)c2)nc1F" , give the reported pIC50.
-- reply 7.89

-- ask What value of pIC50 has been reported for the following molecule? "CCn1ccnc(CC(=O)N2C[C@H](F)C[C@H]2C(=O)N[C@@H](c2ccccc2)c2ccc(C3CC(F)(F)C3)c(F)n2)c1=O"
-- reply 8.10

-- ask Dear colleague, I am looking for the recorded pIC50 of the following molecule: "CC(C)c1ccc([C@@H](NC(=O)[C@@H]2[C@H]3C[C@H]3CN2C(=O)Cc2cnn[nH]2)c2ccccc2)cc1F"
-- reply 7.12
